FYI, the data here is from PubChem BioAssay (NCI).

Tested on: OVCAR-4 ovarian
experiment summary: NCI tumour cell line growth inhibition, 48 h; in the data active = GI50 below about 0.43 µM; inactive = the rest
Hi there, use one of these labels in your reply, thanks! TRUE for active, FALSE for inactive

// param item: O=C1/C(=C/c2ccc(O)cc2)COc2ccc(-c3ccccc3)cc21 ; yields the recorded call FALSE

Lab log entry: Clc1nc(Cl)c2ncn(Cc3ccc(COc4cccc(OCc5ccc(Cn6cnc7c(Cl)nc(Cl)nc76)cc5)c4)cc3)c2n1 — outcome as called in the assay? FALSE

Could you check what this test reported for CC(=O)[O-].CC(=O)[O-].[NH2-].[Pt+2].c1ccc2cnccc2c1 ? FALSE

What was the test verdict on Cc1nc2sc(C(=O)Nc3ccccc3)c(N)c2cc1C(=O)/C=C/c1ccccc1 ? FALSE

What classification did Clc1nc(Cl)c2c(ncn2C/C=C\Cn2cnc3c(Cl)nc(Cl)nc32)n1 end up with in this test? FALSE

Field: outcome | Entry: Fc1cccc(COc2ccc(Nc3ncnc4cc(-c5ccc[nH]5)sc34)cc2Cl)c1 TRUE

Please share the test call associated with COc1c(N2CCN(CN3C(=O)C(=Nc4ccc(S(=O)(=O)Nc5ncccn5)cc4)c4ccccc43)C(C)C2)c(F)cc2c(=O)c(C(=O)O)cn(C3CC3)c12 (configuration not stated) . FALSE

Just curious, what result did CN(CCOc1ccc(C#N)cc1)CCOc1ccc(C#N)cc1 get here? FALSE

I would be grateful if you could indicate the recorded call for CC[C@H](CC#N)OC(=O)N[C@@H](C)c1cccc(NC(=O)Nc2ccc(-c3cnco3)c(OC)c2)c1 . FALSE

I'd appreciate the recorded outcome for O=C(CCl)N1c2ccccc2Sc2c1ccc1ccccc21 from this test. FALSE

Which outcome was entered for the compound CC1OC2CC(=O)OC2C2=C1C(=O)c1c(O)c3c(c(O)c1C2=O)C1CC(O)C3(O)C(C)O1 (configuration not stated) in this test? TRUE

Record request — test call for C[C@@H]1COCCN1c1cc(C2(S(C)(=N)=O)CC2)nc(-c2ccnc3[nH]ccc23)n1 (some centres not stated) FALSE

For NC(C(=O)[O-])C(=O)[O-].NC1CCCCC1N.[Pt+4] , what call appears in the results of this test? FALSE

State the result this test recorded for COc1ccc2c(c1)OC(N(C(C)=O)C(C)=O)=C(C#N)C2c1ccc(F)cc1 (configuration not stated) . FALSE

Per the assay record, what outcome was assigned to CN(C)C(=S)N=Nc1c(O)[nH]c2ccccc12 ? TRUE

Answer briefly: the call reported for COc1ccc(-c2cn(-c3ccccc3)c(-c3ccccc3)n2)cc1OC in this assay. FALSE

Any idea what this test logged for C=C1C(=O)O[C@H]2[C@H]1CC/C(COC(=O)N1CCC[C@H]1C(=O)Nc1ccc(OC)c(C(N)=O)c1O)=C\CC[C@@]1(C)O[C@@H]21 ? FALSE

====

Record form. Attribute: TGI. Fill in for each entry.
Test system: MCF7 breast
experiment summary: NCI tumour cell line growth inhibition, 48 h

What measured TGI goes with Cc1ccc2c(n1)C(=O)c1ccccc1C2=O ? 38.8 µM

Recorded TGI of Fc1cccc(COc2ccc(Nc3ncnc4cc(-c5ccc[nH]5)sc34)cc2Cl)c1 , please. 2.76 µM

Query: TGI; subject: N#CC1(C#N)NC(c2ccsc2)C(C#N)(C#N)NC1c1ccsc1 (configuration not stated) > 100 µM

Find the recorded TGI belonging to Cn1c(-c2cccs2)cc(-c2cccs2)c1-c1ccsc1 and report it. > 100 µM

Given the entry O=C(CCl)N1c2ccccc2Sc2c1ccc1ccccc21 , report its measured TGI. 6.47 µM

Using the record for CC(C)CCn1c(=O)c2c(=O)[nH][nH]c2c2ccccc21 , report its TGI. > 100 µM

Suppose we examine the compound O=[N+]([O-])c1cccnc1NCC1(CO)CC(Cc2ccccc2)C1 (configuration not stated) ; what TGI value has been reported? > 100 µM

Could you tell me which TGI is on file for COC(=O)CCC12CCC(O1)c1ccccc12 (configuration not stated) ? > 100 µM

Given the compound Cc1nc2sc(C(=O)Nc3ccccc3)c(N)c2cc1C(=O)/C=C/c1ccccc1 , what is its reported TGI? 5.51 µM

What measured TGI goes with Nc1cc(N)c(N)cc1N ? 3.81 µM

Could you share which TGI value was measured for COc1cc(-c2cn(-c3ccc(Cl)cc3)c(C)c2C(=O)C(F)(F)F)cc(OC)c1OC ? > 100 µM

Which TGI reading was recorded for the compound COc1ccc2c3c(c(=O)n(C)c2c1OC)C=CC(C)(C)O3 ? > 100 µM

Which value of TGI has been reported for O=[N+]([O-])c1ccc2nc(/C=C(\O)c3ccc(F)cc3)c(/C=C(\O)c3ccc(F)cc3)nc2c1 in the records? > 100 µM

Which TGI reading was recorded for the compound C#C[C@]1(O)CC[C@H]2[C@@H]3CCc4cc(OC(=O)c5cccc6cc7ccccc7nc56)ccc4[C@H]3CC[C@@]21C ? > 100 µM

Recorded TGI of COc1c(N2CCN(CN3C(=O)C(=Nc4ccc(S(=O)(=O)Nc5ncccn5)cc4)c4ccccc43)C(C)C2)c(F)cc2c(=O)c(C(=O)O)cn(C3CC3)c12 (configuration not stated) , please. > 50 µM

Give the measured TGI of CNC1=CC(=O)C2=C(C1=O)[C@H]1CC[C@]3(C)C(=O)CC[C@H]3[C@@H]1CC2 . 47.5 µM

For the compound Clc1nc(Cl)c2c(ncn2C/C=C\Cn2cnc3c(Cl)nc(Cl)nc32)n1 , what TGI is on record? 3.17 µM

Fill blank: measured TGI of the compound Nc1nc(Cl)cc(Nc2cc(Cl)cc(Cl)c2)n1 is ____. 41.6 µM

Look up TGI for this compound: COc1ccccc1N1CCN(Cn2c(=O)oc3cccnc32)CC1 > 100 µM

Could you share which TGI value was measured for COc1cc(COC(=O)N2CCC2C(=O)O)c([N+](=O)[O-])cc1OC (configuration not stated) ? > 100 µM

Recorded TGI of CC(C)C[P+](c1ccccc1)(c1ccccc1)c1ccccc1 , please. > 100 µM

If you can, please state the reported TGI value of CC1(C)Oc2ccc3c(=O)cc(-c4ccc(F)cc4)oc3c2C1C(=O)O (configuration not stated) . > 100 µM

====

Test system: BT-549 breast
experiment summary: NCI tumour cell line growth inhibition, 48 h
So I've got a bunch of compounds here, and I need their TGI values.

Give its TGI value. Item: C=C1C(=O)O[C@H]2[C@H]1CC/C(COC(=O)N1CCC[C@H]1C(=O)Nc1ccc(OC)c(C(N)=O)c1O)=C\CC[C@@]1(C)O[C@@H]21 5.12 µM

Given the entry COc1cccc(NC(=O)CC(=O)N2N=C(C)C(N=Nc3ccc(S(=O)(=O)c4ccc(N=NC5C(=O)N(C(=O)CC(=O)Nc6cccc(OC)c6)N=C5C)cc4)cc3)C2=O)c1 (stereo not given) , report its measured TGI. > 100 µM

I am curious: what TGI value has been reported for Nc1nc2c(c(=O)[nH]1)CN(c1ccc(S(N)(=O)=O)cc1)CN2 ? > 100 µM

Looking for the measured TGI of CC1OC2CC(=O)OC2C2=C1C(=O)c1c(O)c3c(c(O)c1C2=O)C1CC(O)C3(O)C(C)O1 (stereo not given) , can you help? 2.32 µM

What measured TGI goes with CC12CCC(=O)C=C1CCC1C2C(O)CC2(C)C(c3csc(N)n3)CCC12 (stereo not given) ? > 100 µM

Find the recorded TGI belonging to COC(=O)CCC12CCC(O1)c1ccccc12 (stereo not given) and report it. > 100 µM

Please report the recorded TGI for Cc1ccc2c(n1)C(=O)c1ccccc1C2=O . 89 µM

Report TGI for O=C1CCCCc2cccc(O)c21 please. > 100 µM

Name the recorded TGI for C1=C\CCCCN2C[C@H]3CCCC/C=C\CCCCN4CC[C@@H]([C@H](CCCCCC/1)C4)[C@H](C3)C2 . 19.1 µM

Please look up its TGI: COc1ccc2c(c1)OC(N(C(C)=O)C(C)=O)=C(C#N)C2c1ccc(F)cc1 (stereo not given) 40.2 µM

====

System: LOX IMVI melanoma
experiment summary: NCI tumour cell line growth inhibition, 48 h
observed property: TGI

Please look up its TGI: NC(=O)N1N=C2c3ccccc3SC[C@H]2[C@@H]1c1ccccc1 32.4 µM

What does the record list as TGI for CCc1cc(O)c(Cl)c(C)c1Cl ? 31.8 µM

I am curious: what TGI value has been reported for O=c1[nH]nc(Cc2ccccc2)n1Nc1ccccc1 ? > 100 µM

Reported TGI, compound CCCCn1cnc2c(SC)ncnc21 : ____ > 100 µM

May I ask what TGI has been recorded for CN(C)C(=S)N=Nc1c(O)[nH]c2ccccc12 ? 13.5 µM

# lookup: TGI of CC12Cc3cc4c(cc3C1(c1ccc([N+](=O)[O-])cc1)OCCO2)OCO4 (stereo unspecified) > 100 µM

Endpoint output: TGI of OC1COC(n2c3ccc(Br)cc3c3ccc4c5ccccc5[nH]c4c32)C(O)C1O (stereo unspecified) . Value? 10.4 µM

Look up TGI for this compound: N#Cc1c(NC(=S)NC(=O)c2ccccc2)nc2c(c1-c1ccccc1)CCCC2 > 100 µM

Please look up its TGI: CNC(=S)N/N=C/c1cccc(C)n1 > 73.8 µM

// query TGI value for entry COc1ccc(NC(=O)/C(=C/c2ccc(N(CCC#N)CCC#N)cc2)NC(=O)c2cc([N+](=O)[O-])ccc2Cl)cc1 > 100 µM

Any idea what TGI was measured for N[C@H](C(=O)O)[C@H](Cl)CC(=O)O ? > 100 µM

Value lookup for TGI; key = CC/C=C\C/C=C\C/C=C\CCCCCCCC(=O)OCC > 100 µM

Give the measured TGI of COc1cccc(C(=O)C2C(=O)N(C)CCc3ccccc32)c1OC (stereo unspecified) . > 100 µM

Can you look up the measured TGI of CN(C)CCCN1CCc2c([nH]c3ccccc23)C1c1cccnc1 (stereo unspecified) for me? > 100 µM

Returns the measured TGI for the input compound. Input: Cn1c(-c2cccs2)cc(-c2cccs2)c1-c1ccsc1 > 100 µM

TGI lookup needed for COc1cc(C2c3cc4c(cc3[C@@H](Nc3cccc(C(C)=O)c3)C3COC(=O)[C@H]23)OCO4)cc(OC)c1O (stereo partly specified) , thanks. 4.38 µM

TGI for Brc1ccccc1-c1ncc(-c2ccccc2)o1 ? 34.1 µM

Sample CCCCCCCCCCCCCCCCCCCCCC(=O)Nc1ccn(C2OC(CO)C(O)C2O)c(=O)n1 (stereo unspecified) — what was its TGI? > 100 µM

What does the data say about its TGI? Entry: O=C(CN1CCN(c2ccccc2)CC1)N1CCc2c([nH]c3ccccc23)C1c1cccnc1 (stereo unspecified) > 100 µM

# TGI lookup, item CCOC(=O)C(NC(=O)Nc1ccc(Cl)c(Cl)c1)C(F)(F)F (stereo unspecified) > 100 µM

Could you tell me which TGI is on file for CNC(=O)c1[nH]cnc1/N=N/N(C)N ? > 100 µM
